method notes: A549 lung cancer cell viability effects, profiling panel, resazurin fluorescence, 24 h, PK04 Diversity Set (AID 1171); further: test concentration not given here
cond: higher = more signal, called active from +8 up or from −8 down
measured metric: z-score
Could you respond with only the numeric value?

Suppose we examine the compound `COC(=O)CC=C[C@@H](C)[C@@H](C=NOC[C@@H](C)[C@H](OCc1ccccc1)C(C)C)NS(=O)(=O)c1ccc(C)cc1` ; what z-score value has been reported? 0.0101

Continue with `CCOC(=O)NN=C1C[C@@H](O)[C@@H](O)[C@@H]2[C@@H]3C(=O)N(C[C@@H]4CCCO4)C(=O)[C@@H]3CC[C@H]12` 0.159

Another compound: `O=C1C=C[C@@H](O)[C@@H]2[C@@H]3C(=O)N(c4cccc(Oc5ccccc5)c4)C(=O)[C@@H]3CC[C@@H]12` -0.869

Please give the result for `Cc1ccc2[nH]c3nc(CCCn4ccnc4-c4ccccc4)nnc3c2c1` too. 0.384

Now the compound COC(=O)[C@H](C)NC(=O)CCC1CC(OC(=O)NCc2cccc3ccccc23)CC2(CCCC(COC(=O)NCCCN3CCCC3=O)O2)O1 (stereo partly specified) 0.44

Consider next the compound `CO[C@@H]1COC(=O)[C@H](COCc2ccccc2)NC(=O)CC=C[C@@H](C)[C@H](OC)COC(=O)[C@@H](C)NC(=O)CC=C[C@H]1C` in the same way. 0.846

* * *

method notes: small-molecule binders of probe aNOTCH3, primary screen, biochemical, small-molecule microarray, 635/667 nm fluorescence (AID 1120);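 further: probe is a biotin-tagged antibody raised against NOTCH3 rather than NOTCH3 protein; score merges spot fluorescence near 667 nm with spot signal to noise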
cond: higher = more signal
measured metric: composite z-score
Kindly provide the number alone.

Query: composite z-score; subject: `COC(=O)CC=C[C@@H](C)[C@@H](C=NOC[C@@H](O)COCc1ccco1)NS(=O)(=O)c1ccc(C)cc1` -0.169

// same read-out, input: COC(=O)CC=C[C@@H](C)[C@@H](C=NOC(C)CN1CCCCc2nc(C)c(C)cc21)NS(=O)(=O)c1ccc(C)cc1 (stereo partly specified) 0.0949

Input COC(=O)[C@H](C)NC(=O)CCC1CC(OC(=O)NCc2cccc3ccccc23)CC2(CCCC(COC(=O)NCCC(C)C)O2)O1 (stereo partly specified) -0.095

And the next one, `C#CCCCON=C1C[C@@H](O)[C@@H](O)[C@@H]2[C@@H]3C(=O)N(C[C@@H]4CCCO4)C(=O)[C@@H]3CC[C@H]12` ? -0.0662

// query: `CCCNC(=O)OC[C@H]1O[C@H](CCON=C2C[C@@H](O)[C@@H](O)[C@@H]3[C@@H]4C(=O)N(CC)C(=O)[C@@H]4CC[C@@H]23)C=C[C@@H]1Oc1ccc(OC)cc1` 0.217

Can you handle `COCOc1ccc(Br)cc1C(=O)C=Cc1ccc2c(c1)OCO2` next? -0.132

Please answer likewise for CC(CCN1CCc2nc(-c3ccccc3)c(-c3ccccc3)cc2C1)=NOC(C)CN1CCCc2nc(C)c(C)cc21 (stereo unspecified) 0.233

Lookup O=C(NCCC[N+]1=CC=NC1c1ccccc1)N1CCCc2nc(-c3ccc(Br)cc3)ccc21 (stereo unspecified) -0.222

Same for `CCOC(=O)CCN1C(=O)[C@H]2[C@H]3[C@H](O)[C@H](O)CC(=NOCC=C(C)CCC=C(C)C)[C@H]3CC[C@H]2C1=O` 0.179

Record: `CON=C(C)CCN1CCCCc2nc(C)c(C)cc21` 0.245

// repeat for `CC(C)(C)N1C(=O)[C@H]2[C@H]3[C@H](O)[C@H](O)CC(=NOC[C@@H](O)COCc4ccco4)[C@@H]3CC[C@H]2C1=O` and report -0.0311
